Values compiled from patent US8067445B2.

system: human DP2 receptor (Homo sapiens)
Sequence (Q9Y5Y4 1-395): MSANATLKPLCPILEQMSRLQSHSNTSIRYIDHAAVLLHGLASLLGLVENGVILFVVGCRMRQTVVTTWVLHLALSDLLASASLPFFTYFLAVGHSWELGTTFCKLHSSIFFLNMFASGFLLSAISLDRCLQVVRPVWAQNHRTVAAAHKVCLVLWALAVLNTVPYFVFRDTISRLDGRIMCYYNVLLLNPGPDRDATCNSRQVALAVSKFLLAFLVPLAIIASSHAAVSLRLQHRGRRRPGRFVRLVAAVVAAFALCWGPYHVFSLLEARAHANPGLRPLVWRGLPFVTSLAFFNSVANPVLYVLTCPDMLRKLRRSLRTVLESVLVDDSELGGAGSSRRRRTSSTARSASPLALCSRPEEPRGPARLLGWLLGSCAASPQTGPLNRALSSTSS
This listing pairs molecules with measured IC50.

| compoundStructureString | IC50 |
| --- | --- |
| CCN(Cc1cc(C(F)(F)F)ccc1-c1cc(CC(=O)O)ccc1OCC1CC1)C(=O)OCc1ccccc1 | < 300 nM |
| CCN(Cc1cc(C(F)(F)F)ccc1-c1cc([C@@H](C)C(=O)O)cc(C(F)(F)F)c1)C(=O)NCc1ccccc1 | < 300 nM |
| COCCN(Cc1cc(C(F)(F)F)ccc1-c1cc(CC(=O)O)ccc1OC)C(C)=O | < 300 nM |
| CCN(Cc1cc(C(F)(F)F)ccc1-c1cc(CC(=O)O)cc(C(F)(F)F)c1)C(=O)NC | < 300 nM |
| CCN(Cc1cc(C(F)(F)F)ccc1-c1ccc(C(F)(F)F)c(CC(=O)O)c1)C(=O)OCc1ccccc1 | 300 to 1000 nM |
| CCN(Cc1cc(C(F)(F)F)ccc1-c1cc([C@H](C)C(=O)O)cc(C(F)(F)F)c1)C(=O)C1CC1 | < 300 nM |
| COc1ccc(CC(=O)O)cc1-c1ccc(C(F)(F)F)cc1CN(C(C)=O)c1ccccc1 | 300 to 1000 nM |

* * *

system: human DP1 receptor (Homo sapiens, UniProt Q13258)
Construct: tissue Biological Specialty Corporation; host or cells: human platelet membranes
Sequence (Q13258 whole entry): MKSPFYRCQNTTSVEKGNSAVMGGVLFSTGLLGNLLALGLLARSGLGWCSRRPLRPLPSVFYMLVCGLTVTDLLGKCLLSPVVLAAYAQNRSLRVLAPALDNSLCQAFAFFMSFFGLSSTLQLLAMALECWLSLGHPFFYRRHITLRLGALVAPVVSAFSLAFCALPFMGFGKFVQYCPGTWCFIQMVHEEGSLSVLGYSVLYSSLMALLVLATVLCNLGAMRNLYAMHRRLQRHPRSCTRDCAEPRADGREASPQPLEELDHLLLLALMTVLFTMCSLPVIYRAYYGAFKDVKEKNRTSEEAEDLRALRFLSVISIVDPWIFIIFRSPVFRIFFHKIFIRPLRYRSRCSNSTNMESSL
measurementNotes: DP1 radioligand binding assay ([3H]BWA868C, platelet membranes)
parameterMeasured: IC50

| compoundStructureString | reportedValue |
| --- | --- |
| COc1ccc(CC(=O)O)cc1-c1ccc(C(F)(F)F)cc1CN(C(=O)OCc1ccccc1)C1CC1 | 1 to 30 µM |

* * *

Sequence of the target: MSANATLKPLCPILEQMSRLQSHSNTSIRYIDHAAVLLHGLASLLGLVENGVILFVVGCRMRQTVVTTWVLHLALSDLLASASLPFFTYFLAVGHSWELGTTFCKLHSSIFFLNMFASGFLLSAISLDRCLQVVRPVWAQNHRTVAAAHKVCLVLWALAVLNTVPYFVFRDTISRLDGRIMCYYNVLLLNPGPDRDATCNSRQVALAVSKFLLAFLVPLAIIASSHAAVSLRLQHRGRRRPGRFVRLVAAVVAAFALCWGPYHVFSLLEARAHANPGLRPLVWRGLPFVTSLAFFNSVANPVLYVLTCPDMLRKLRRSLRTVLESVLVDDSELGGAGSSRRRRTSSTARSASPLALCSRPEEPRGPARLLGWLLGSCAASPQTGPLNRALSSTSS

| molecule | IC50 |
| --- | --- |
| CCN(Cc1cc(C(F)(F)F)ccc1-c1cc(CC(=O)O)cc(C(F)(F)F)c1)C(=O)OC | < 300 nM |
| CCN(Cc1cc(C(F)(F)F)ccc1-c1cc(CC(=O)O)ccc1OC)C(=O)NCc1ccc(Cl)cc1 | < 300 nM |
| CCN(Cc1cc(C(F)(F)F)ccc1-c1cc(CC(=O)O)ccc1OC)/C(=N/C#N)NCC(C)(C)C | < 300 nM |
| CCN(Cc1cc(C(F)(F)F)ccc1-c1cc(CC(=O)O[C@@H]2O[C@H](C(=O)O)[C@@H](O)[C@H](O)[C@H]2O)ccc1OC)C(=O)NCc1ccccc1 | 300 to 1000 nM |
| CCN(Cc1cc(C(F)(F)F)ccc1-c1cc(CC(=O)O)cc(C(F)(F)F)c1)C(=O)NCc1ccc(Cl)cc1 | < 300 nM |
| CCN(Cc1cc(C(F)(F)F)ccc1-c1cc([C@@H](C)C(=O)N[C@H](C)Cc2ccccc2)cc(C(F)(F)F)c1)C(=O)NCc1ccccc1 | > 30000 nM |
| CCN(Cc1cc(C(F)(F)F)ccc1-c1cc(C(C)(C)C(=O)O)ccc1OC)C(=O)OCc1ccccc1 | 300 to 1000 nM |
| CCN(Cc1cc(-c2cnn(C)c2)ccc1-c1cc(CC(=O)O)ccc1OC)C(=O)C1CC1 | < 300 nM |
| COc1ccc(CC(=O)O)cc1-c1ccc(C(F)(F)F)cc1CN(CC(C)(C)C)C(C)=O | < 300 nM |
| CCN(Cc1cc(C(F)(F)F)ccc1-c1cc(CC(=O)O)cc(C(F)(F)F)c1)C(=O)NCc1ccccc1 | < 300 nM |
| CCN(Cc1cc(C(F)(F)F)ccc1-c1cc(CC(=O)O)cc(C(F)(F)F)c1)C(=O)c1ccccc1 | < 300 nM |
| CCN(Cc1cc(C(F)(F)F)ccc1-c1cc(Cc2nn[nH]n2)ccc1OC)C(=O)OCc1ccccc1 | < 300 nM |
| CCN(Cc1cc(C(F)(F)F)ccc1-c1cc(C(C)C(=O)O)ccc1OC)C(=O)NCc1ccccc1 (centres unmarked) | < 300 nM |
| CCN(Cc1cc(C(F)(F)F)ccc1-c1cc(CC(N)=O)ccc1OC)C(=O)OCc1ccccc1 | 1000 to 30000 nM |
| CCN(Cc1cc(C(F)(F)F)ccc1-c1cc(C(F)(F)C(=O)O)ccc1OC)C(=O)OCc1ccccc1 | 1000 to 30000 nM |
| CCN(Cc1cc(C(F)(F)F)ccc1-c1cc(Cl)cc(CC(=O)O)c1)C(=O)NCc1ccccc1 | < 300 nM |
| CCN(Cc1ccc(C)cc1-c1cc(CC(=O)O)ccc1OC)C(=O)OCc1ccc(F)cc1 | < 300 nM |
| CCN(Cc1cc(C(F)(F)F)ccc1-c1cc(CC#N)ccc1OC)C(=O)OCc1ccccc1 | > 30000 nM |
| CCN(Cc1cc(C(F)(F)F)ccc1-c1cc(CC(=O)O)ccc1OC)C(N)=O | < 300 nM |
| CCN(Cc1cc(C(F)(F)F)ccc1-c1cc(Cl)cc(CC(=O)O)c1)C(C)=O | < 300 nM |
